Tested on: P. falciparum strain 3D7 parasites
experimentalDetails: parasite killing assay, P. falciparum 3D7, pLDH readout
Format: cell-based, Plasmodium falciparum
details: Plasmodium falciparum, 3D7, 48 h, ring stage, read-out: IC50
pIC50: −log10 of the molar value.
endpoint: pIC50

{"molecule": "CSc1cccc(NC(=O)C(C)N(c2ccc3c(c2)OCCO3)S(C)(=O)=O)c1 (stereo not shown)", "valueMeasured": "5.32 to 5.74"}
